Provide the reported growth inhibition of each item.
Test: NCI Yeast Anticancer Drug Screen. Data for the bub3 strain (AID 167)
Conditions: S. cerevisiae bub3 mutant strain, at 50.0 µM (retest, dose inferred, filed as 5.0), active compounds read high
About 79,000 compounds went through this panel and 15% of them were active in at least one assay; those are over-represented in the sample as a whole.
Give bare numbers, in %.

Known results for compounds:
- compound: "O=C1c2ccccc2C(=O)c2c1cc(O)c(O)c2O"
  measurement unit: "%"
  growth inhibition: 91
- compound: "CC(=O)c1c(O)c(C)c(O)c2c1OC1=CC(=O)c3c(C)noc3C12C (stereo not given)"
  measurement unit: "%"
  growth inhibition: 1

Quick request: growth inhibition for each listed item, please.
1. CCc1[nH]c2ccccc2c1C(c1c(CC)[nH]c2ccccc12)C1CCCCC1=O (stereo not given)
2. CCCCCCCCc1ccc2c3ccccc3c3ccccc3c2c1

1: 95; 2: -10

Entry CC(NNC(=S)NCc1ccccc1)c1cc2ccccc2cn1 (stereo not given) has what growth inhibition?
93

---

Experiment: NCI Yeast Anticancer Drug Screen. Data for the mec2-1 strain (AID 157)
Details: S. cerevisiae mec2-1 strain, at 5.0 µM (retest, dose inferred, filed as 0.5)
Compounds without any hit were thinned out: in the full panel of roughly 79,000, 15% have a hit. Active and inactive are the calls of the source. Rule as the data show it: active = growth inhibition above about 70%; inactive = the rest.
Give your call using only these classes: active, inactive

For this compound, state the assay outcome: COc1cc(Nc2ccc(Oc3ccc(O)cc3)cc2)c2ncccc2c1
inactive

Further, for O=S1(=O)c2ccccc2C(=NO)c2ccccc21 ?
inactive

Would you mind doing O=C(O)c1ccc([N+](=O)[O-])cc1.[Ag] as well?
active

---

Assay: NCI Yeast Anticancer Drug Screen. Data for the sgs1 mgt1 strain (AID 161);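 note: 0% = growth of cultures given vehicle only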
Details: S. cerevisiae sgs1 mgt1 strain, at 5.0 µM (retest, dose inferred, filed as 0.5)
Compounds without any hit were thinned out: in the full panel of roughly 79,000, 15% have a hit. The source made the active and inactive calls. Rule as the data show it: active = growth inhibition above about 70%; inactive = the rest.
Result category, one only: active, inactive

- compound: "CN(C)C(=O)/N=c1\\ss/c(=N\\C(=S)N(C)C)n1-c1ccccc1"
  group label: "inactive"
- compound: "O=C1C(C=NC(=S)c2ccccc2)=C(O)c2ccccc21"
  group label: "inactive"
- compound: "O=[N+]([O-])c1ccc(/C=c2\\sc3scc(-c4ccc([N+](=O)[O-])cc4)[n+]3\\c2=C/c2ccc([N+](=O)[O-])cc2)cc1"
  group label: "active"
- compound: "CC(NNC(=S)NCc1ccccc1)c1cc2ccccc2cn1 (centres undefined)"
  group label: "inactive"
- compound: "CC(C)C1=C(O)C2=C(C(=O)C1=O)C1(C)CCCC(C)(C)C1C(O)C2OC=O (centres undefined)"
  group label: "active"
- compound: "Cc1cccc(Cl)c1NC(=S)Nc1cccc(C(F)(F)F)c1"
  group label: "inactive"
- compound: "O=C(O)c1cccc2c1Oc1c(cccc1C(=O)O)S2"
  group label: "inactive"
- compound: "Oc1ccc(CNC2CCCCC2)cc1"
  group label: "inactive"
- compound: "Cc1c(Cl)ccc(O)c1[N+](=O)[O-]"
  group label: "inactive"
- compound: "CC(=O)Oc1ccc2c(c1)CCC1C2CCC2(C)C1CCC21CO1 (centres undefined)"
  group label: "inactive"

Turning now to a further record.
# outcome recorded in this test, key = O=[N+]([O-])c1cc(Cl)cc2c1nc(NCCO)c1ccccc12
inactive
